Reference for the values: patent US20220033454A1

Target: T1, endogenous IL-22 receptor on AsPC-1 cells (UniProt Q8N6P7 16-574, limits assumed)
T1 sequence (looked up): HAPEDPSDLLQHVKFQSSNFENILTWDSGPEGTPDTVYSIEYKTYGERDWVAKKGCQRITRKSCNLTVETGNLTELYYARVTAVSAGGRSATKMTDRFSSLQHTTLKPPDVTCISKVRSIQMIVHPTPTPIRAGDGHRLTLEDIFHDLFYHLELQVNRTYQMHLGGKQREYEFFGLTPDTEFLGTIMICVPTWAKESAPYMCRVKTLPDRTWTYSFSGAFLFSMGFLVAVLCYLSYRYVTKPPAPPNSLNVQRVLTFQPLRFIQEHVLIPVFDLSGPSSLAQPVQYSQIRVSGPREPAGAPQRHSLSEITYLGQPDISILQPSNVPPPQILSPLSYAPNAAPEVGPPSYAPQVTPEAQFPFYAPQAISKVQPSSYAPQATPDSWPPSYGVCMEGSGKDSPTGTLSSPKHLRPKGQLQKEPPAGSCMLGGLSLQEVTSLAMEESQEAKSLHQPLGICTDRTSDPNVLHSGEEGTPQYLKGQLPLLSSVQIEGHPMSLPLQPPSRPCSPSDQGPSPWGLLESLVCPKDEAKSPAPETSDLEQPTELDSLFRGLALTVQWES
Experiment: cell-based or functional assay
reported property: EC50 of STAT3 phosphorylation (phospho-STAT3 Tyr705 HTRF) in AsPC-1 cells (µM)

{"binder": "Anti-HSA-mIL-22 A3 (other, Single-chain fusion, expressed in ExpiCHO cells) QVQLVESGGGVVQPGGSLRLSCAASGFAFRGFGMSWVRQAPGKGLEWVSSINNGGSDTYYADSVKGRFTISRDNSKNTLYLQMNSLRAEDTAVYYCAIGGPGASPSGQGTQVTVSSGGGSGGGSGGGSGGGSLPVNTRCKLEVSNFQQPYIVNRTFMLAKEASLADNNTDVRLIGEKLFRGVSAKDQCYLMKQVLNFTLEDVLLPQSDRFQPYMQEVVPFLTKLSNQLSSCHISGDDQNIQKNVRRLKETVKKLGESGEIKAIGELDLLFMSLRNACV", "unit of measure": "µM", "recorded measurement": 0.5}
{"binder": "hIL-22-anti-HSA A1 (other, Single-chain fusion of IL-22 and an anti-HSA VHH, expressed in ExpiCHO cells; also called fusion protein A1) APISSHCRLDKSNFQQPYITNRTFMLAKEASLADNNTDVRLIGEKLFHGVSMSERCYLMKQVLNFTLEEVLFPQSDRFQPYMQEVVPFLARLSNRLSTCHIEGDDLHIQRNVQKLKDTVKKLGESGEIKAIGELDLLFMSLRNACISGGGGSGGGGSGGGGSEVQLVESGGGLVQPGGSLRLSCAASGSTWSINTLAWYRQAPGKQRDLVARISSGGSTYYADSVKGRFTISRDNSKNTLYLQMNSLRAEDTAVYYCYAQSTWYPPSWGQGTLVTVSS", "unit of measure": "µM", "recorded measurement": 0.8}
{"binder": "mIL-22-anti-HSA A2 (other, Single-chain fusion, expressed in ExpiCHO cells; also called fusion protein A2) LPVNTRCKLEVSNFQQPYIVNRTFMLAKEASLADNNTDVRLIGEKLFRGVSAKDQCYLMKQVLNFTLEDVLLPQSDRFQPYMQEVVPFLTKLSNQLSSCHISGDDQNIQKNVRRLKETVKKLGESGEIKAIGELDLLFMSLRNACVSGGGGSGGGGSGGGGSEVQLVESGGGLVQPGGSLRLSCAASGSTWSINTLAWYRQAPGKQRDLVARISSGGSTYYADSVKGRFTISRDNSKNTLYLQMNSLRAEDTAVYYCYAQSTWYPPSWGQGTLVTVSS", "unit of measure": "µM", "recorded measurement": 0.7}
